meta.source: patent US20240400572A1

- runDescription: Pharmacokinetic study, plasma
- Format: in vivo
- experimentalSetup: male, C57BL/6, mouse, plasma, po, 20 mg/kg, male C57BL/6 mice, 0.5 hr, N=3, read-out: plasma Concentration, Mean
- Procedure: Compound KL50 dosing solution: 3.39% DMSO+96.61% (10% HP-β-CD in saline) at 2 mg/mL; • 1) Weigh 17.39 mg of compound KL50 into a clean tube. • 2) Add 0.295 mL DMSO into the tube containing the compound. • 3) Vortex the tube for 3 min and sonicate it for 4 min. • 4) Add 8.400 mL 10% HP-β-CD in saline into the tube and vortex the tube for 3 min. […]
parameterMeasured: concentration at 0.5 hr (µg/mL)

{"molSmiles": "CNC(=O)c1ncn2c(=O)n(CCF)nnc12", "measurement": 6.85}
{"molSmiles": "NC(=O)c1ncn2c(=O)n(CCF)nnc12", "measurement": 14}

---

- runDescription: Brain distribution study
- Type: in vivo, male C57BL/6 mice
- experimentalSetup: male, C57BL/6, mouse, brain, po, 20 mg/kg, PO 20 mg/kg, male C57BL/6 mice, 2 hr; read-out: brain Concentration, Individuals

{"compound": "NC(=O)c1ncn2c(=O)n(CCF)nnc12 [KL-50]", "concentration at 2 hr, ng/g": 934}

---

- runDescription: Brain distribution study
- Format: in vivo, male C57BL/6 mice
- experimentalSetup: male, C57BL/6, mouse, brain/plasma, po, 20 mg/kg, PO 20 mg/kg, male C57BL/6 mice, 0.167 hr, N=3; read-out: Brain Concentration/Plasma Concentration, Mean

{"molecule": "CNC(=O)c1ncn2c(=O)n(CCF)nnc12 [Compound I-1]", "Kp at 0.167 hr": 0.501}
{"molecule": "NC(=O)c1ncn2c(=O)n(CCF)nnc12 [KL-50]", "Kp at 0.167 hr": 0.136}

---

- runDescription: Brain distribution study
- Format: in vivo, male C57BL/6 mice
- experimentalSetup: mouse; brain, PO 20 mg/kg, male C57BL/6 mice
parameterMeasured: Tmax (min)

{"compound": "CNC(=O)c1ncn2c(=O)n(CCF)nnc12 [Compound I-1]", "measurement": 10}
{"compound": "NC(=O)c1ncn2c(=O)n(CCF)nnc12 [KL-50]", "measurement": 20}

---

- runDescription: Pharmacokinetic study, plasma
- Format: in vivo
- experimentalSetup: mouse; plasma, PO 20 mg/kg, male C57BL/6 mice
As shown below, each of these molecules has a reported AUC(0-t) value.
parameterMeasured: AUC(0-t) (ng·h/mL)

{"molecule": "CNC(=O)c1ncn2c(=O)n(CCF)nnc12 [Compound I-1]", "measurement": 9680}
{"molecule": "NC(=O)c1ncn2c(=O)n(CCF)nnc12 [KL-50]", "measurement": 28400}

---

- runDescription: Pharmacokinetic study, plasma
- Assay type: in vivo
- experimentalSetup: mouse; plasma, PO 20 mg/kg, male C57BL/6 mice
parameterMeasured: MRT inf (h)

{"molecule": "CNC(=O)c1ncn2c(=O)n(CCF)nnc12 [Compound I-1]", "parameterMeasured": "MRT inf", "unitSpec": "h", "measurement": 0.536}
{"molecule": "NC(=O)c1ncn2c(=O)n(CCF)nnc12 [KL-50]", "parameterMeasured": "MRT inf", "unitSpec": "h", "measurement": 1.47}
